- assay.explanation: viability of HCT116 lacking mutant beta-catenin – cell-based, human colon tumor, dose response (AID 1045);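 note: HCT116 colon tumor cells with beta catenin knocked out; cells exposed to compound for 60 hours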
- Format: functional
Activity calls are given as the source filed them.
observed.property: EC50

Cc1ccc2[nH]c(/C(C#N)=C\c3ccc(N4CCCCC4)c([N+](=O)[O-])c3)nc2c1 :: 22 µM (active)
O=C(Oc1ccccc1/C=C\C(=O)c1cc2ccccc2o1)c1cccc(F)c1 :: 8.35 µM (active)
CCOc1cc(CNCCO)cc(Br)c1OCc1ccccc1Cl :: 9.13 µM (active)

// switching to the query molecule
q: Recorded EC50 for COc1ccc(C2Oc3ccccc3C3=C2C(c2cccs2)n2ncnc2N3)cc1 (centres undefined) , please?
a: 7.97 µM (active)

---

For each of the molecules below, state its CC50.
- Tested on: Vero
- assay.explanation: cells
- Assay type: functional
- measurement.setup: Chlorocebus sabaeus
The source made the active and inactive calls.

CN1CCN(c2ccc(-c3ccc4ccccc4n3)cc2)CC1 :: > 25 µM (active)

Could you tell me CC50 for each of these molecules? They are listed below.
1. COc1cc(CNc2ccc(N3CCCC3)cc2)cc(Cl)c1OC
2. CCOc1ccc(/C=C/c2nc(C#N)c(NCCCN(C)C)o2)cc1
3. CCOc1cc(CNCCO)cc(Br)c1OCc1ccccc1Cl

a:
4.57 µM (active)
> 25 µM (active)
13.8 µM (active)

---

- assay.explanation: Luminescence Cell-Based Dose Confirmation HTS to Identify Inhibitors of Platelet Dense Granule Release. [Related pubchem assays: 1663 (Primary HTS), 1678 (Summary of Project)]
- Type: functional
The source made the active and inactive calls.
observed.property: EC50

Example compounds with recorded EC50:
COc1ccc(CN2CCCC(C(=O)c3cccc(OC(C)C)c3)C2)cc1Cn1cccn1 (centres undefined) :: > 112 µM (not active)
Cc1c(C)c2ccc(OCC(=O)Nc3ccccn3)c(C)c2oc1=O :: 2.73 µM (active)
CN1CCN(c2ccc(-c3ccc4ccccc4n3)cc2)CC1 :: 1.66 µM (active)

q: Recorded EC50 for O=C(CC1(O)C(=O)N(Cc2ccccc2)c2ccccc21)c1ccncc1 (centres undefined) , please?
a: > 112 µM (not active)

---

- tgt: Glucose-6-phosphate 1-dehydrogenase (Homo sapiens, UniProt P11413)
- Sequence (P11413 whole entry): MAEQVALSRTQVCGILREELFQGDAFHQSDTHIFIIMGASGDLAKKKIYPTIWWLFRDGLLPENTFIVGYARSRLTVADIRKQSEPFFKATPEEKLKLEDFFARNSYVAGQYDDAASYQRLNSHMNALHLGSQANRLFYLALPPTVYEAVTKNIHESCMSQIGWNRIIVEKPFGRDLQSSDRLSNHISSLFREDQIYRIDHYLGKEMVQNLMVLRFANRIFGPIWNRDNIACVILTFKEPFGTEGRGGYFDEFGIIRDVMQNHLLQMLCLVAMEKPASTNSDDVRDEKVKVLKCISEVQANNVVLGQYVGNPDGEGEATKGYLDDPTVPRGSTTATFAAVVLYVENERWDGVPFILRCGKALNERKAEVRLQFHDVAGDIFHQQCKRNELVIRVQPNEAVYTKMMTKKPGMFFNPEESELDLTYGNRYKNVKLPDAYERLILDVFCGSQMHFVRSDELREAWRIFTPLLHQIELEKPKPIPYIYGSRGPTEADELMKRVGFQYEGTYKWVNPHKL
- assay.explanation: inhibition of Homo sapiens G6PD, dose series – biochemical, fluorescence, selectivity assay for P. falciparum G6PD inhibitor project, dose response (AID 504792)
- Format: functional
Activity calls are given as the source filed them.
Mark one answer only. Choices: active, inactive

Cc1ccc(-c2csc(NC(=O)c3ccc(Br)cc3)c2C(=O)O)cc1 :: inactive
c1ccc(SSc2ccccn2)nc1 :: inactive
COc1cc(CNc2ccc(N3CCCC3)cc2)cc(Cl)c1OC :: inactive
Cc1cccc(-n2c(=S)[nH]c3sc4c(c3c2=O)CCc2ccccc2-4)c1 :: inactive
O=c1c2ccccc2sn1-c1cccc(Cl)c1 :: active

Now consider the entry below.
q: State the result this test recorded for `O=C(CNC(=O)c1ccco1)OCC(=O)c1ccc([N+](=O)[O-])cc1` .
a: inactive

---

- tgt: Kappa-type opioid receptor (Homo sapiens)
- Sequence (P41145 whole entry): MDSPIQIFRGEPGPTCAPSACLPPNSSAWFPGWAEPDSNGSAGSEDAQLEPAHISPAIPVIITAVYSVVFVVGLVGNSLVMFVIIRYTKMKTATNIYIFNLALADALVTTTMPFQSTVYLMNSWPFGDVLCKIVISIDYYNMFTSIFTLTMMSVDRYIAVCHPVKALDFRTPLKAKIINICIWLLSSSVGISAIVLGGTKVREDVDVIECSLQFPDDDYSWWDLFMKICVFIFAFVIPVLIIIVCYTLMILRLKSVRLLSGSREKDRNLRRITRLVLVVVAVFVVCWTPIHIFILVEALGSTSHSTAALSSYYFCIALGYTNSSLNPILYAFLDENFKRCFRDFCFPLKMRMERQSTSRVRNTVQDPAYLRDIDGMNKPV
- Assay type: functional
observed.property: pEC50
One number for each entry, as −log10 of the molar value.

q: Recorded pEC50 for `COc1ccc(CCN2C(=O)CS/C2=N\c2ccc(C(C)C)cc2)cc1OC` , please?
a: 5.17

---

For each of the molecules below, state its EC50.
- assay.explanation: NIH3T3 cell viability loss – ATP luminescence, mouse fibroblasts, counter-screen, dose response (AID 2010);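 note: cells exposed to compound for about 90 hours before reading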
- Assay type: functional, cell-based
Activity calls are given as the source filed them.

Example molecules with recorded EC50:
COC(=O)C1CCN(Cc2ccc(OCCCN3CCN(c4ccc([N+](=O)[O-])cc4)CC3)cc2)CC1 :: > 30 µM (not active)
Cc1ccc2[nH]c(/C(C#N)=C\c3ccc(N4CCCCC4)c([N+](=O)[O-])c3)nc2c1 :: > 60 µM (inconclusive)
COC(=O)c1ccc(-c2nc(CN3CCN(Cc4cccc(C)c4)CC3)c(C)o2)cc1 :: > 60 µM (not active)
CSc1ncc2c(n1)-c1cc(C)ccc1SC2 :: > 30 µM (not active)
Cc1cc(C)nc(SC2c3cccc4cccc(c34)C2NS(=O)(=O)c2ccccc2)n1 (stereo not given) :: 12.8 µM (active)
CN1CCc2c(sc(NC(=O)c3ccc([N+](=O)[O-])o3)c2C(N)=O)C1 :: 3.92 µM (active)
COc1ccc(-c2ccc(C(C)=O)cc2)cc1[C@H]1[C@H]2C=CC[C@@H](C)[C@@H]2C(=O)N1Cc1ccccc1 :: 18.9 µM (active)
COc1ccc(CNc2ccc(Cl)cc2)cc1Cn1ccnc1 :: > 60 µM (not active)

Could you tell me EC50 for each of these molecules? They are listed below.
1. Cc1ccc(S(=O)(=O)Cn2nnnc2C(C(C)C)N2CCN(c3nc4ccccc4s3)CC2)cc1 (stereo not given)
2. CN1CCN(c2ccc(C(=O)c3ccccc3)cc2[N+](=O)[O-])CC1

a:
1. > 60 µM (inconclusive)
2. > 60 µM (not active)

---

- tgt: Paired box protein Pax-8 (Homo sapiens, UniProt Q06710)
- Sequence (Q06710 whole entry): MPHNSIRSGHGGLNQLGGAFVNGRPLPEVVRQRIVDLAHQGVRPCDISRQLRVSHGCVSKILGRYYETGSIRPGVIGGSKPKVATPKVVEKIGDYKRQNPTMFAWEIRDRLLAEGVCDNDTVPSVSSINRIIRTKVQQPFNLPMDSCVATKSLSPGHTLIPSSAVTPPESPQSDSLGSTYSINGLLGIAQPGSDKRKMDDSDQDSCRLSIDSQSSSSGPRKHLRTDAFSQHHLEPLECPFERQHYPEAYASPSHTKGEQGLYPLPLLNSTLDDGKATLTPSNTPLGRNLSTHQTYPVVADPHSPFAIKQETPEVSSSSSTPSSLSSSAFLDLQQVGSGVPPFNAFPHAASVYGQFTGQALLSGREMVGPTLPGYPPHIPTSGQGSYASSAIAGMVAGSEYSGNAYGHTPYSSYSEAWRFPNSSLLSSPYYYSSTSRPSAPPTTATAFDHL
- assay.explanation: PAX8 transcriptional activity inhibition in RMG-I – RMG-I cells, luciferase, cherry-pick, dose response (AID 687027);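 note: luciferase reporter driven by Pax8 target thyroperoxidase promoter measured by SteadyGlo luminescence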
- Format: functional, cell-based
The source made the active and inactive calls.
For each of the compounds below, state its AC50.

Could you tell me AC50 for each of these compounds? They are listed below.
1. COc1ccc(OC)c(N(CCN2C(=O)c3ccccc3C2=O)C(=O)CCl)c1
2. O=C(CN1C(=O)c2ccccc2S1(=O)=O)c1ccc(Cl)cc1Cl
3. Cc1ccc(S(=O)(=O)N(C)C[C@@H]2OCCCC[C@H](C)Oc3ccc(NS(=O)(=O)c4ccc(F)cc4)cc3C(=O)N([C@H](C)CO)C[C@H]2C)cc1
4. COC1CC2C=C(C)C=CC=CC(=O)NC(c3ccccc3)CC=CCCC(O)CC(O)=C2C1=O (stereo not drawn)
5. Oc1[nH]c2ccc(Br)cc2c1N=NC(=S)N1CCOCC1
6. C[C@@H]1CN([C@H](C)CO)C(=O)c2c(c3ccccc3n2C)-c2ccccc2CO[C@H]1CN(C)C(=O)Nc1cccc(C(F)(F)F)c1
7. COc1cccc(S(=O)(=O)N(C)C[C@@H]2Oc3cc(C4=CCCCC4)ccc3S(=O)(=O)N([C@@H](C)CO)C[C@H]2C)c1

a:
1. 0.966 µM (active)
2. 2.93 µM (active)
3. 5.5 µM (active)
4. 0.673 µM (active)
5. 1.55 µM (active)
6. 5.56 µM (active)
7. 14.5 µM (active)

q: What is its AC50 for Paired box protein Pax-8 (Homo sapiens, UniProt Q06710)? Entry: `C[C@@H]1CCCCO[C@@H](CN(C)Cc2ccccc2)[C@@H](C)CN([C@H](C)CO)C(=O)c2cc(NC(=O)Nc3ccc(C(F)(F)F)cc3)ccc2O1`
a: 10.1 µM (active)

---

- tgt: Ubiquitin-conjugating enzyme E2 N (Homo sapiens, UniProt P61088)
- Sequence (P61088 whole entry): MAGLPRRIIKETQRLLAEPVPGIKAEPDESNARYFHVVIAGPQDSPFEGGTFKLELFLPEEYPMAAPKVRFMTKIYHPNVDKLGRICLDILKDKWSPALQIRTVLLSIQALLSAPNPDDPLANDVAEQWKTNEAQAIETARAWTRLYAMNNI
- Format: functional
Calls of active or inactive are those of the source.
Mark one answer only. Choices: label 1 (active), label 0 (inactive)

// below: answered compounds
CCN1CCN(Cc2ccc(NC(=O)c3ccc(C)c(/C=C/c4cnc(Nc5cc(N6CCNCC6)nc(C)n5)cn4)c3)cc2C(F)(F)F)CC1 :: label 1
O=C1c2cccc3cccc(c23)C(=O)N1CC1CCN(CC(O)COCc2ccc3c(c2)OCO3)CC1 (centres undefined) :: label 1
O=C(Nc1ccc(F)c(Cl)c1)C1CCN(c2ncnc3c2nc2n3CCCCC2)CC1 :: label 1
NC1=NC[C@H](c2ccccc2)N1CCCCC1CCCCC1 :: label 0
CN1CCN(C(=O)C2CCN(c3ncnc4c3nc3n4CCCCC3)CC2)CC1 :: label 1
Cc1ccc(N(C(=O)c2snc(C(N)=O)c2N)C(C(=O)NC2CCCC2)c2ccco2)cc1 (centres undefined) :: label 1
CCC(C(=O)NC1CCCC1)N(C(=O)c1snc(C(N)=O)c1N)c1ccc2c(c1)OCCO2 (centres undefined) :: label 1
Oc1ccc(C[C@@H]2CNCCN2CCCCC2CCCCC2)cc1 :: label 0

Now consider the entry below.
q: State the result this test recorded for `COC(=O)[C@@]12CCCCN1[C@H](c1ccc(-c3cc(C(C)=O)cs3)c(OC)c1)[C@H]1C(=O)N(C)C(=O)[C@H]12` .
a: label 0

---

For each of the compounds below, state its EC50.
- tgt: Streptokinase A (Streptococcus pyogenes serotype M1)
- Sequence (P10520 whole entry): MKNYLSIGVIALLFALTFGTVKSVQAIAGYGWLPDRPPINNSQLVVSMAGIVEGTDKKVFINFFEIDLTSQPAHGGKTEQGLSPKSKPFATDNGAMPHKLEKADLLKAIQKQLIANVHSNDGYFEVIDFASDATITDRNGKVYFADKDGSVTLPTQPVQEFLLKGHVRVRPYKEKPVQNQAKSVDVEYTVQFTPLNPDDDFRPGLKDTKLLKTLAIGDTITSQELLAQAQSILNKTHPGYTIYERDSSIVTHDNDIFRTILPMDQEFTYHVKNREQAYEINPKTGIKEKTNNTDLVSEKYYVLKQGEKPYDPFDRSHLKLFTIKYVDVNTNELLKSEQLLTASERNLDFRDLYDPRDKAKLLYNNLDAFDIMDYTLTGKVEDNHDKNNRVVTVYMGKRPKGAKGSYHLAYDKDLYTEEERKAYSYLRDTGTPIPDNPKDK
- assay.explanation: viability-normalized secreted streptokinase activity reduction – plasminogen activation absorbance, OD405, dose response (AID 1914);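 note: secreted streptokinase activity via plasminogen activation per viability signal from cell pellet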
- Assay type: functional, Streptococcus pyogenes M1 GAS
Active and inactive are the calls of the source.

Could you tell me EC50 for each of these compounds? They are listed below.
1. O=C(Nc1nc(N2C(=O)c3ccccc3C2=O)n(-c2ccccc2)n1)c1ccc(Cl)cc1
2. CC(C)(C)c1ccc(C(=O)Nc2ccc(F)cc2)s1
3. O=C(C[n+]1ccc2ccccc2c1)Nc1cc(C(F)(F)F)ccc1Cl

a:
1: > 150 µM (not active); 2: > 150 µM (not active); 3: > 150 µM (not active)

Could you tell me EC50 for each of these compounds? They are listed below.
1. CC(=O)c1ccc(NC(=O)CN2C(=O)/C(=C/C=C/c3ccccc3)SC2=S)cc1
2. COc1cc(/C=N/NC(=O)c2nnn(-c3nonc3N)c2C(C)C)ccc1OCc1ccc(F)cc1
3. Cc1cc(C)c(-c2noc(C(=O)OC(C)(C)C)c2C(=O)OC(C)(C)C)c(C)c1
4. CN1c2ccsc2/C(=N/Nc2ccccc2)CS1(=O)=O

a:
> 150 µM (not active)
13.4 µM (active)
11.5 µM (active)
4.12 µM (active)

q: What is its EC50 for Streptokinase A (Streptococcus pyogenes serotype M1)? Entry: O=C(NN/C=C1\C(=O)N(c2ccccc2Cl)C(=O)c2ccccc21)C1COc2ccccc2O1 (stereo not drawn)
a: > 150 µM (not active)
